target: Coronary A2-Adenosine Receptor (Canis lupus familiaris, UniProt P11617); construct: The assay of coronary vasoactivity in the anesthetized, open-chest dog; from tissue; host or cells: coronary vessels in situ, anesthetized open-chest dog; experiment: Coronary vasoactivity in the anesthetized, open-chest dog (intracoronary infusion; MPR from EC50); format: in vivo; settings: molar potency ratio relative to N6-methyladenosine (set equal to 1.0); coronary, dog
Sequence (P11617 whole entry, the tested form may be a part): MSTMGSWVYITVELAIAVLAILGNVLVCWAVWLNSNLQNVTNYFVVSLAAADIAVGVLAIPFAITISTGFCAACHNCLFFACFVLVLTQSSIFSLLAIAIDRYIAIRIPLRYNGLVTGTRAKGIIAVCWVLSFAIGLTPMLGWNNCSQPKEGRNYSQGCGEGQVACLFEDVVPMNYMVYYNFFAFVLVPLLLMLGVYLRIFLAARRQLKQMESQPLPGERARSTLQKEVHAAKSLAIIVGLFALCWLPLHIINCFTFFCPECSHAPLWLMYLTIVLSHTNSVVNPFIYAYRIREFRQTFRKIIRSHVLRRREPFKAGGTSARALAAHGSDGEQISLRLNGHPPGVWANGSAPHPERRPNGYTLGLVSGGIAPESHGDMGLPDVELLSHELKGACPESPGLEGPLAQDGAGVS
Hi there, I'd appreciate the recorded A2 Receptor MPR Relative to MeAdo for every entry that follows.
Field format: numeric only.

Hello, I am looking for reported A2 Receptor MPR Relative to MeAdo with Coronary A2-Adenosine Receptor (Canis lupus familiaris, UniProt P11617) for COC(=O)Cc1ccc(NC(=O)Cc2ccc(Nc3ncnc4c3ncn4[C@@H]3O[C@H](CO)[C@@H](O)[C@H]3O)cc2)cc1 . Could you help? 64

Lookup: A2 Receptor MPR Relative to MeAdo / Coronary A2-Adenosine Receptor (Canis lupus familiaris, UniProt P11617) / CNc1ncnc2c1ncn2[C@@H]1O[C@H](CO)[C@@H](O)[C@H]1O [Compound 3, N^6 -methyladenosine, reference compound] 1.0

Look up A2 Receptor MPR Relative to MeAdo with Coronary A2-Adenosine Receptor (Canis lupus familiaris, UniProt P11617) for this compound: O=C(CCCC[C@@H]1SC[C@@H]2NC(=O)N[C@@H]21)NCCNC(=O)Cc1ccc(NC(=O)Cc2ccc(Nc3ncnc4c3ncn4[C@@H]3O[C@H](CO)[C@@H](O)[C@H]3O)cc2)cc1 60

Requested read-out A2 Receptor MPR Relative to MeAdo, target or system Coronary A2-Adenosine Receptor (Canis lupus familiaris, UniProt P11617), entry Nc1nc(Cl)nc2c1ncn2[C@@H]1O[C@H](CO)[C@@H](O)[C@H]1O [Compound 2, 2-Chloroadenosine, reference compound] 540

Observed A2 Receptor MPR Relative to MeAdo on Coronary A2-Adenosine Receptor (Canis lupus familiaris, UniProt P11617) for COC(=O)[C@H](Cc1ccc(NC(=O)Cc2ccc(Nc3ncnc4c3ncn4[C@@H]3O[C@H](CO)[C@@H](O)[C@H]3O)cc2)cc1)NC(=O)C(F)(F)F , please. 60

====

biological target: Brain A1-adenosine receptor (Rattus norvegicus); construct: -cyclohexyladenosine to rat cerebral cortical membranes; from tissue; host or cells: rat cerebral cortical membranes; assay: A1-binding assay: antagonism of binding of 1nM [3H]N6-cyclohexyladenosine to rat cerebral cortical membranes; conditions: molar potency ratio derived from Ki values; rat cerebral cortical membranes
Sequence (P25099 whole entry): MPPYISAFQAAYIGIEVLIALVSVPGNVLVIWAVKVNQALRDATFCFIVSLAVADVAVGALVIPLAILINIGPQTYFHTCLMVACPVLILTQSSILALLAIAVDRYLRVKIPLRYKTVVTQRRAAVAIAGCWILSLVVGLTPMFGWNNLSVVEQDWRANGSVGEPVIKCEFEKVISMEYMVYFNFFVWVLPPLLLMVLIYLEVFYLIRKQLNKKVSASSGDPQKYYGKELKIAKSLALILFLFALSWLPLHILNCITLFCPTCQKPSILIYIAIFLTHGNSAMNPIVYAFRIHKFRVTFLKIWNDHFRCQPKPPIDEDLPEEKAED
Provide the reported A1 Receptor MPR Relative to MeAdo of each item.
Output: the number by itself.

Fill blank: measured A1 Receptor MPR Relative to MeAdo of the molecule COC(=O)[C@H](Cc1ccc(NC(=O)Cc2ccc(Nc3ncnc4c3ncn4[C@@H]3O[C@H](CO)[C@@H](O)[C@H]3O)cc2)cc1)NC(=O)C(F)(F)F is ____. 3.3

// lookup A1 Receptor MPR Relative to MeAdo for O=C(CCCC[C@@H]1SC[C@@H]2NC(=O)N[C@@H]21)NCCCCCC(=O)NCCNC(=O)Cc1ccc(NC(=O)Cc2ccc(Nc3ncnc4c3ncn4[C@@H]3O[C@H](CO)[C@@H](O)[C@H]3O)cc2)cc1 3.3

Can you share its A1 Receptor MPR Relative to MeAdo? I mean this molecule: COC(=O)Cc1ccc(NC(=O)Cc2ccc(Nc3ncnc4c3ncn4[C@@H]3O[C@H](CO)[C@@H](O)[C@H]3O)cc2)cc1 24

Data request, read-out A1 Receptor MPR Relative to MeAdo, for O=C(CCCC[C@@H]1SC[C@@H]2NC(=O)N[C@@H]21)NCCNC(=O)Cc1ccc(NC(=O)Cc2ccc(Nc3ncnc4c3ncn4[C@@H]3O[C@H](CO)[C@@H](O)[C@H]3O)cc2)cc1 5.5

What value of measured A1 Receptor MPR Relative to MeAdo is listed for CNC(=O)CNC(=O)[C@H](Cc1ccc(NC(=O)Cc2ccc(Nc3ncnc4c3ncn4[C@@H]3O[C@H](CO)[C@@H](O)[C@H]3O)cc2)cc1)NC(=O)OC(C)(C)C ? 4.6

Any idea what A1 Receptor MPR Relative to MeAdo was measured for Cc1ccc(Nc2ncnc3c2ncn3[C@@H]2O[C@H](CO)[C@@H](O)[C@H]2O)cc1 [Compound 7, N^6 -p-tolyladenosine, reference compound] ? 24

Could you share which A1 Receptor MPR Relative to MeAdo value was measured for O=C(O)Cc1ccc(Nc2ncnc3c2ncn3[C@@H]2O[C@H](CO)[C@@H](O)[C@H]2O)cc1 ? 0.29

Consider the molecule Nc1nc(Cl)nc2c1ncn2[C@@H]1O[C@H](CO)[C@@H](O)[C@H]1O [Compound 2, 2-Chloroadenosine, reference compound] and give its measured A1 Receptor MPR Relative to MeAdo. 10

Item under review: CNc1ncnc2c1ncn2[C@@H]1O[C@H](CO)[C@@H](O)[C@H]1O [Compound 3, N^6 -methyladenosine, reference compound] . Reported A1 Receptor MPR Relative to MeAdo? 1.0

Using the record for Cc1ccc(NC(=O)Cc2ccc(Nc3ncnc4c3ncn4[C@@H]3O[C@H](CO)[C@@H](O)[C@H]3O)cc2)cc1 , report its A1 Receptor MPR Relative to MeAdo. 35

Recorded A1 Receptor MPR Relative to MeAdo for O=C(CCc1ccc(O)cc1)NCCNC(=O)Cc1ccc(NC(=O)Cc2ccc(Nc3ncnc4c3ncn4[C@@H]3O[C@H](CO)[C@@H](O)[C@H]3O)cc2)cc1 , please? 13

Can you look up the measured A1 Receptor MPR Relative to MeAdo of NNC(=O)Cc1ccc(NC(=O)Cc2ccc(Nc3ncnc4c3ncn4[C@@H]3O[C@H](CO)[C@@H](O)[C@H]3O)cc2)cc1 for me? 13

For the molecule shown here, CNC(=O)Cc1ccc(NC(=O)Cc2ccc(Nc3ncnc4c3ncn4[C@@H]3O[C@H](CO)[C@@H](O)[C@H]3O)cc2)cc1 , give the reported A1 Receptor MPR Relative to MeAdo. 9.0

Can you share its A1 Receptor MPR Relative to MeAdo? I mean this molecule: OC[C@H]1O[C@@H](n2cnc3c(Nc4ccccc4)ncnc32)[C@H](O)[C@@H]1O [Compound 6, N^6 -phenyladenosine, reference compound] 18

====

target: A2-adenosine receptor (adenylate cyclase, human platelet membranes) (Homo sapiens, UniProt P29274); construct: stimulation of adenylate cyclase in human platelet membranes; from tissue; host or cells: human platelet membranes; experiment: Stimulation of adenylate cyclase in human platelet membranes; format: biochemical; details: human platelet membranes; read-out: IC50 (printed lC50), stimulation of adenylate cyclase
Sequence (P29274 whole entry): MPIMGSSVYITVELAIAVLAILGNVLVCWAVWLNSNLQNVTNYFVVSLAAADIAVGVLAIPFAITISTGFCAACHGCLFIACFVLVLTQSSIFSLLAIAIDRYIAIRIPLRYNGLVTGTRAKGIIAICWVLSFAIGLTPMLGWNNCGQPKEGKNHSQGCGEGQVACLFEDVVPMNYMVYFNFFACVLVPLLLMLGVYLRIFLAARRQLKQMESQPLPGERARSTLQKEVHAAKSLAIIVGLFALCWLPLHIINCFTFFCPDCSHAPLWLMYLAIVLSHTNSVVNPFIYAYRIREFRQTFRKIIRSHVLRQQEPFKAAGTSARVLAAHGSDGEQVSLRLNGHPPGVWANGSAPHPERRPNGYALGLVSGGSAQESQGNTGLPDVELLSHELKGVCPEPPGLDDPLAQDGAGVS
OBSERVATION_TYPE: pIC50
Lab note — pIC50 values are minus log10 of concentrations in M.

Quick one: pIC50 of O=C(O)Cc1ccc(Nc2ncnc3c2ncn3[C@@H]2O[C@H](CO)[C@@H](O)[C@H]2O)cc1 ? 4.59

Any idea what its pIC50 is? The compound is O=C(CCCC[C@@H]1SC[C@@H]2NC(=O)N[C@@H]21)NCCCCCC(=O)NCCNC(=O)Cc1ccc(NC(=O)Cc2ccc(Nc3ncnc4c3ncn4[C@@H]3O[C@H](CO)[C@@H](O)[C@H]3O)cc2)cc1 5.62

====

target: Coronary A2-Adenosine Receptor (Canis lupus familiaris); construct: The assay of coronary vasoactivity in the anesthetized, open-chest dog; from tissue; host or cells: coronary vessels in situ, anesthetized open-chest dog; test: Coronary vasoactivity in the anesthetized, open-chest dog (intracoronary infusion; MPR from EC50); format: in vivo; conditions: molar potency ratio: EC50 of adenosine divided by that of the analogue; coronary, dog
Entry flag: class 1 if A2 Receptor MPR Relative to Ado reaches 7; class 0 if it does not.

I'd appreciate it if you could say whether O=C(CCCC[C@@H]1SC[C@@H]2NC(=O)N[C@@H]21)NCCCCCC(=O)NCCNC(=O)Cc1ccc(NC(=O)Cc2ccc(Nc3ncnc4c3ncn4[C@@H]3O[C@H](CO)[C@@H](O)[C@H]3O)cc2)cc1 has A2 Receptor MPR Relative to Ado at least equal to 7. class 1

Can COC(=O)[C@H](Cc1ccc(NC(=O)Cc2ccc(Nc3ncnc4c3ncn4[C@@H]3O[C@H](CO)[C@@H](O)[C@H]3O)cc2)cc1)NC(=O)C(F)(F)F be said to have A2 Receptor MPR Relative to Ado at or above 7? class 0

Has Cc1ccc(NC(=O)Cc2ccc(Nc3ncnc4c3ncn4[C@@H]3O[C@H](CO)[C@@H](O)[C@H]3O)cc2)cc1 a recorded A2 Receptor MPR Relative to Ado greater than or equal to 7? class 0

# check: A2 Receptor MPR Relative to Ado of O=C(CCCC[C@@H]1SC[C@@H]2NC(=O)N[C@@H]21)NCCNC(=O)Cc1ccc(NC(=O)Cc2ccc(Nc3ncnc4c3ncn4[C@@H]3O[C@H](CO)[C@@H](O)[C@H]3O)cc2)cc1 is greater than or equal to 7 class 0

Check the entry OC[C@H]1O[C@@H](n2cnc3c(Nc4ccccc4)ncnc32)[C@H](O)[C@@H]1O [Compound 6, N^6 -phenyladenosine, reference compound] : does A2 Receptor MPR Relative to Ado equal or exceed 7? class 0

Does the compound COC(=O)Cc1ccc(NC(=O)Cc2ccc(Nc3ncnc4c3ncn4[C@@H]3O[C@H](CO)[C@@H](O)[C@H]3O)cc2)cc1 have recorded A2 Receptor MPR Relative to Ado that is 7 or more? class 1

Quick check: does Cc1ccc(Nc2ncnc3c2ncn3[C@@H]2O[C@H](CO)[C@@H](O)[C@H]2O)cc1 [Compound 7, N^6 -p-tolyladenosine, reference compound] have A2 Receptor MPR Relative to Ado greater than or equal to 7? class 0

Is A2 Receptor MPR Relative to Ado for NCCNC(=O)Cc1ccc(NC(=O)Cc2ccc(Nc3ncnc4c3ncn4[C@@H]3O[C@H](CO)[C@@H](O)[C@H]3O)cc2)cc1 at or above 7? class 1

Quick check: does NNC(=O)Cc1ccc(NC(=O)Cc2ccc(Nc3ncnc4c3ncn4[C@@H]3O[C@H](CO)[C@@H](O)[C@H]3O)cc2)cc1 have A2 Receptor MPR Relative to Ado greater than or equal to 7? class 0

Evaluate O=C(CCc1ccc(O)cc1)NCCNC(=O)Cc1ccc(NC(=O)Cc2ccc(Nc3ncnc4c3ncn4[C@@H]3O[C@H](CO)[C@@H](O)[C@H]3O)cc2)cc1 : A2 Receptor MPR Relative to Ado at minimum 7? class 0

Threshold query (A2 Receptor MPR Relative to Ado >= 7) on CNc1ncnc2c1ncn2[C@@H]1O[C@H](CO)[C@@H](O)[C@H]1O [Compound 3, N^6 -methyladenosine, reference compound] class 0

Answer whether A2 Receptor MPR Relative to Ado of CNC(=O)CNC(=O)[C@H](Cc1ccc(NC(=O)Cc2ccc(Nc3ncnc4c3ncn4[C@@H]3O[C@H](CO)[C@@H](O)[C@H]3O)cc2)cc1)NC(=O)OC(C)(C)C is greater than or equal to 7. class 0

Check this compound for A2 Receptor MPR Relative to Ado at or above 7: Nc1nc(Cl)nc2c1ncn2[C@@H]1O[C@H](CO)[C@@H](O)[C@H]1O [Compound 2, 2-Chloroadenosine, reference compound] class 1
